Molecular target: Interstitial collagenase (Homo sapiens);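 note: recombinant human enzyme, with inhibition measured after 30 min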
Details: at 1 mM
Would you kindly list inhibition for each of these compounds?
One number for each entry, in %.

{"SUBSTANCE_SMILES": "O=C(O)c1cccc(O)c1O", "QUANTITY_KIND": "inhibition", "VALUE": 17}
{"SUBSTANCE_SMILES": "Cc1cccc(C(=O)O)c1O", "QUANTITY_KIND": "inhibition", "VALUE": 10}
{"SUBSTANCE_SMILES": "Cc1cc(=O)c(O)c(CCl)o1", "QUANTITY_KIND": "inhibition", "VALUE": 53}

Below are 5 compounds. Give each one its inhibition.
1. Oc1ccccc1-c1nc2ccccc2o1
2. CCc1c(O)c(=O)ccn1CC
3. O=C(O)c1ccc[nH]1
4. Nc1ccc2cccc(O)c2n1
5. Cc1cc(=O)[nH]c(=S)[nH]1

Resp:
11
25
8
96
40

This collection of values is drawn from ChEMBL document CHEMBL1649420.
